The reported numbers originate from patent US20240309103A1.

Items are presented alongside their recorded koff.
- target-under-test: T1, hNPR1-mFc:hBNP complex (human, UniProt P16860 103-134)
- T1 construct: also called human NPR1 complexed to BNP
- assay-method-text: SPR, mAb captured, 25C
Numeric answer only, unit s⁻¹ assumed.

binder: mAb25497 (antibody, human IgG4, V domains shown) VH: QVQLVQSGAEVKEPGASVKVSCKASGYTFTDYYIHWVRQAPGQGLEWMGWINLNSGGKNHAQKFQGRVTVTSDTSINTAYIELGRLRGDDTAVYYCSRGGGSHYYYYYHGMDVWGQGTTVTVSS VL: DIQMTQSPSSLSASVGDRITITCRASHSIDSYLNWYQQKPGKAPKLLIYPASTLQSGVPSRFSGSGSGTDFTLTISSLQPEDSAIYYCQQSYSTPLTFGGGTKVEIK
koff / s⁻¹: 5.49e-05
//
binder: mAb25491 (antibody, human IgG4, V domains shown) VH: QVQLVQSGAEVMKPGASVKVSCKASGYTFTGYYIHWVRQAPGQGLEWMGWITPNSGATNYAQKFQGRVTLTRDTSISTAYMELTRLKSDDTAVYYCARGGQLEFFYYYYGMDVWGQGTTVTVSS VL: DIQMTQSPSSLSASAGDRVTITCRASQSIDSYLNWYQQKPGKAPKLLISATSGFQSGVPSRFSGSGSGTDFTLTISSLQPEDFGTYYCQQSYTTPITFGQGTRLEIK
koff / s⁻¹: 4.96e-05

Next up:
Need koff, item mAb25508 (antibody, human IgG4, V domains shown) VH: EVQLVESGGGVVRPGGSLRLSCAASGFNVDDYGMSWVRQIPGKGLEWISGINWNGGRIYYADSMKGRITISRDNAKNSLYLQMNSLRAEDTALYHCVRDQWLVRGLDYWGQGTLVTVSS VL: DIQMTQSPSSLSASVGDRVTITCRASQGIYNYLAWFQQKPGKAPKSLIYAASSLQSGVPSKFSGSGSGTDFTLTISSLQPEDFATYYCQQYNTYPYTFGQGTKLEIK
8.57e-05
